assay summary: photoluminescence quantum yield (fraction); solvent given as SMILES
setup conditions: in CC#N
metric name: photoluminescence quantum yield
Give bare numbers.

INSERT INTO results (structure_as_smiles, result_value) VALUES
  ('CC1=CC(c2ccc3ccccc3c2)=[O+][B-]2(OC(=O)C(=O)O2)O1', 0.03),
  ('Cc1ccc2c(c1)nc1c(=O)n(C)c(=O)nc-1n2C', 0.43),
  ('COc1ccc(/C=C/c2ccccc2)cc1OC', 0.035),
  ('CCCCCCCCC1(CCCCCCCC)c2ccccc2-c2ccc(N(c3ccc(-n4c5ccccc5c5ccccc54)cc3)c3ccc4c(c3)C(CCCCCCCC)(CCCCCCCC)c3ccccc3-4)cc21', 0.31),
  ('Cc1nn(-c2ccccc2)c(C2=NN(c3ccc(Br)cc3)[C@@H](c3ccccc3)[C@@H]2c2ccccc2)c1C#N', 0.41);

List photoluminescence quantum yield for every entry below, keeping the order given.
1. COC(=O)c1cc(=O)n(C)c2cc(-c3ccc4c(c3)OCCO4)sc12
2. CCN(CC)c1ccc2c(-c3ccccc3C(=O)[O-])c3ccc(=[N+](CC)CC)cc-3oc2c1
3. CN(C)c1ccc(/C=C/c2ncc3ccccc3n2)cc1
4. Nc1n[n+]([O-])c2ccccc2[n+]1[O-]

Response line:
1. 0.68
2. 0.4
3. 0.06
4. 0.006

List photoluminescence quantum yield for every entry below, keeping the order given.
1. Cc1cc(C(F)(F)F)nc2c1ccc1nc(-c3ccc(F)c(F)c3)cn12
2. CC(=O)Nc1cc2ccc3cccc4ccc(c1)c2c34
3. CCn1c2ccccc2c2cc(/C=C3\C(=O)c4ccccc4S3(=O)=O)ccc21
4. CC(=O)c1c2c(cc3cc(N(C)C)ccc13)CCC2
5. CCOC(=O)c1ccc(NC(=O)COc2cc3c4c([nH]c3c(C)c2C)C(=O)CCC4)cc1
6. CCOc1ccc(/C=C/C=C/C=C/c2ccc([N+](=O)[O-])cc2)cc1
7. c1cc2c3c(cccc3c1)C(N1CCOCCNCCOCCOCC1)=N2

Response line:
[0.84, 0.09, 0.023, 0.18, 0.131, 0.017, 0.0046]

List photoluminescence quantum yield for every entry below, keeping the order given.
1. COc1ccc(/C=C/C2=NC(=C\c3ccncc3)/C(=O)N2C)cc1
2. CC(C)(C)c1ccc(-c2cc3c4c(c2)CCc2cc(-c5ccc(C(C)(C)C)cc5)cc(c2-4)CC3)cc1
3. O=C1c2cc(F)ccc2-c2cnccc21

Response line:
[0.0026, 0.55, 0.015]

Below is a list of molecules. For each, state its recorded photoluminescence quantum yield.
1. Clc1nc(Nc2ccccc2)nc(Nc2ccc3cc4ccccc4cc3c2)n1
2. CCN(CC)c1ccc2c(C#N)c(/C=C(\C#N)c3nc4ccccc4o3)c(=O)oc2c1

Response line:
0.18
0.0658

Hello, the source for this data is the Deep4Chem optical property database, in case you need it.
